- Tested on: Mus musculus
- measurement.notes: Toxicity in ICR mouse implanted with mouse H22-H8D8 cells assessed as body weight at 10 mg/kg, iv (reference value: 29.89 to 33.78 g)
- Type: organism-based
- conditions: in vivo
Activity for assorted compounds
result.type: Activity (g)

• CCOC(=O)C1=C(N)Oc2c(N)cc3nc4ccccc4nc3c2C1c1ccccc1Br (centres undefined) = 37.44
• CCOC(=O)C1=C(N)Oc2c(N)cc3nc4ccccc4nc3c2C1c1cccc(Cl)c1Cl (centres undefined) = 39.22
• N#CC1=C(N)Oc2c(N)cc3nc4ccccc4nc3c2C1c1ccc(Cl)cc1 (centres undefined) = 41.33
• N#CC1=C(N)Oc2c(N)cc3nc4ccccc4nc3c2C1c1ccc(Cl)c(Cl)c1 (centres undefined) = 35.33
